Test system SRC (Homo sapiens, UniProt P12931), pIC50 listed for each of the compounds.
pIC50: −log10 of the molar value.

The cases that follow already have their pIC50 on record.
given_smiles=CC(C)(C)c1cc(NC(=O)Nc2ccc(Oc3ncnc4[nH]ncc34)cc2)on1 reported_measurement="> 5.00"
given_smiles=CC(C)(C)c1cc(NC(=O)Nc2ccc(Oc3ncnc4[nH]ncc34)c(F)c2)no1 reported_measurement="> 5.00"
given_smiles=O=C(Nc1ccc(Oc2ncnc3[nH]ncc23)cc1)Nc1cccc(C(F)(F)F)c1 reported_measurement=5.52

# next compound below
Quick one: give measured pIC50 for "O=C(Nc1ccc(Oc2ncnc3[nH]ncc23)cc1)Nc1ccc(Cl)c(C(F)(F)F)c1" > 5.00

----------
molecular target: UniProtKB P21802; assay: Kinase inhibition activity test, isotope labeling: FGFR2; type: biochemical; conditions: test compound at a concentration of 10 μM
# Activity inhibition rate FGFR2 (h) >= 50% gives T, anything below gives F

Previously resolved entries follow.
given_smiles=O=C(Nc1ccc(C(F)(F)F)cc1)Nc1ccc(Oc2ncnc3[nH]ncc23)c(F)c1 category_label=F
given_smiles=O=C(Nc1ccc(Sc2ncnc3[nH]ncc23)cc1)Nc1cccc(C(F)(F)F)c1 category_label=T
given_smiles=O=C(Nc1ccc(Oc2ncnc3[nH]ncc23)cc1)Nc1ccc(Cl)c(C(F)(F)F)c1 category_label=T
given_smiles=C[C@@H](NC(=O)Nc1ccc(Oc2ncnc3[nH]ncc23)cc1)c1ccccc1 category_label=F
given_smiles=O=C(Nc1ccc(Oc2ncnc3[nH]ncc23)cc1)Nc1cc(C(F)(F)F)cc(C(F)(F)F)c1 category_label=T
given_smiles=CC(C)(C)c1cc(NC(=O)Nc2ccc(Oc3ncnc4[nH]ncc34)c(F)c2)no1 category_label=T

Reported Activity inhibition rate FGFR2 (h) at or above 50%? "C[C@H](NC(=O)Nc1ccc(Oc2ncnc3[nH]ncc23)cc1)c1ccccc1" F

Identify whether the reported Activity inhibition rate FGFR2 (h) of the following molecule is 50% or greater: "O=C(Nc1ccc(Oc2ncnc3[nH]ncc23)c(F)c1)Nc1ccc(Cl)c(C(F)(F)F)c1" T

----------
molecular target: FLT4 (Homo sapiens)
Sequence (P35916 25-1363): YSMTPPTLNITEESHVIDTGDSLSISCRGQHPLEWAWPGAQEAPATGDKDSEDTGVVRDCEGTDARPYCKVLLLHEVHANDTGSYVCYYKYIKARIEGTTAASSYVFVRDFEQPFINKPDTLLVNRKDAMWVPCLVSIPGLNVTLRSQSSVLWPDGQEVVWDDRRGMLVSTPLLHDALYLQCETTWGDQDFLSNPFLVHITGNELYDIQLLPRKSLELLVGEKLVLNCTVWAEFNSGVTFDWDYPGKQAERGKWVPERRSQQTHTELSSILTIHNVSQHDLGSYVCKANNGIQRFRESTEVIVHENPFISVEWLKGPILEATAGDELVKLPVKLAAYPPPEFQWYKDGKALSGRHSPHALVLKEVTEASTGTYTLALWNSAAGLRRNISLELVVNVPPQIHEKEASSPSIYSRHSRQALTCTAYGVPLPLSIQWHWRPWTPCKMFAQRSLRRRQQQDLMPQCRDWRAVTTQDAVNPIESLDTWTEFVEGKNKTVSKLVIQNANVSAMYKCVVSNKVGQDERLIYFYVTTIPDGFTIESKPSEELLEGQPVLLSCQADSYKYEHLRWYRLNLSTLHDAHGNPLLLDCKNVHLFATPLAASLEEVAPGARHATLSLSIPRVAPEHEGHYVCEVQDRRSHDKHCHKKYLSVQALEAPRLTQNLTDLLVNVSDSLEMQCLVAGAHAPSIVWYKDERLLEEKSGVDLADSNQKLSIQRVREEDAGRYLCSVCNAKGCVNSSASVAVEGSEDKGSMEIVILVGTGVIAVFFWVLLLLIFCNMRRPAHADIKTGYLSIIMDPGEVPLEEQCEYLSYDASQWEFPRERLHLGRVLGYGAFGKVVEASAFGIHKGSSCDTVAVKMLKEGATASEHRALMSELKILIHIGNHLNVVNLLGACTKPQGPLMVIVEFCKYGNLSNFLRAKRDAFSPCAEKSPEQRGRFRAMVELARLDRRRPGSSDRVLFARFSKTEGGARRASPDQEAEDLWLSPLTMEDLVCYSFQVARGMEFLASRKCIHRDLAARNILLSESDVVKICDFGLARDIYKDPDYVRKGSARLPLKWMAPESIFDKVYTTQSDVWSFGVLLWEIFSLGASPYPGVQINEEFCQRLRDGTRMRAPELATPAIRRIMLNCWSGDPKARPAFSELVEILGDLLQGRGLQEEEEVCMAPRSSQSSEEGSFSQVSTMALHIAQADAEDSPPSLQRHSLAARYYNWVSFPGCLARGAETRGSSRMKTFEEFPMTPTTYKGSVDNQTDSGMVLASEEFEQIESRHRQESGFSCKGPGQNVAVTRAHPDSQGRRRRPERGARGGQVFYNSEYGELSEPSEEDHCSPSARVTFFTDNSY
measurement.kind: IC50 (nM)
Numbers only, in nM.

Respond only with IC50 recorded for "O=C(Nc1ccc(Oc2ncnc3[nH]ncc23)cc1)Nc1cccc(C(F)(F)F)c1" 5

----------
Reported values: IC50 for EphA2 (Homo sapiens, UniProt P29317), one per item.

given_smiles=CC(C)(C)c1cc(NC(=O)Nc2ccc(Oc3ncnc4[nH]ncc34)cc2)on1 system="EphA2 (Homo sapiens, UniProt P29317)" reported_measurement="< 10 µM"
given_smiles=O=C(Nc1ccc(Oc2ncnc3[nH]ncc23)cc1)Nc1cccc(C(F)(F)F)c1 system="EphA2 (Homo sapiens, UniProt P29317)" reported_measurement="0.056 µM"
given_smiles=O=C(Nc1ccc(Oc2ncnc3[nH]ncc23)cc1)Nc1ccc(Cl)c(C(F)(F)F)c1 system="EphA2 (Homo sapiens, UniProt P29317)" reported_measurement="< 10 µM"

Would you kindly look at the next entry?
// fetch IC50 given entry "CC(C)(C)c1cc(NC(=O)Nc2ccc(Oc3ncnc4[nH]ncc34)c(F)c2)no1" < 10 µM

----------
molecular target: PDGFRα (Homo sapiens, UniProt P16234); assay: Kinase inhibition activity test, isotope labeling: PDGFRα; assay type: biochemical; conditions: test compound at a concentration of 10 μM
Sequence (P16234 24-1089): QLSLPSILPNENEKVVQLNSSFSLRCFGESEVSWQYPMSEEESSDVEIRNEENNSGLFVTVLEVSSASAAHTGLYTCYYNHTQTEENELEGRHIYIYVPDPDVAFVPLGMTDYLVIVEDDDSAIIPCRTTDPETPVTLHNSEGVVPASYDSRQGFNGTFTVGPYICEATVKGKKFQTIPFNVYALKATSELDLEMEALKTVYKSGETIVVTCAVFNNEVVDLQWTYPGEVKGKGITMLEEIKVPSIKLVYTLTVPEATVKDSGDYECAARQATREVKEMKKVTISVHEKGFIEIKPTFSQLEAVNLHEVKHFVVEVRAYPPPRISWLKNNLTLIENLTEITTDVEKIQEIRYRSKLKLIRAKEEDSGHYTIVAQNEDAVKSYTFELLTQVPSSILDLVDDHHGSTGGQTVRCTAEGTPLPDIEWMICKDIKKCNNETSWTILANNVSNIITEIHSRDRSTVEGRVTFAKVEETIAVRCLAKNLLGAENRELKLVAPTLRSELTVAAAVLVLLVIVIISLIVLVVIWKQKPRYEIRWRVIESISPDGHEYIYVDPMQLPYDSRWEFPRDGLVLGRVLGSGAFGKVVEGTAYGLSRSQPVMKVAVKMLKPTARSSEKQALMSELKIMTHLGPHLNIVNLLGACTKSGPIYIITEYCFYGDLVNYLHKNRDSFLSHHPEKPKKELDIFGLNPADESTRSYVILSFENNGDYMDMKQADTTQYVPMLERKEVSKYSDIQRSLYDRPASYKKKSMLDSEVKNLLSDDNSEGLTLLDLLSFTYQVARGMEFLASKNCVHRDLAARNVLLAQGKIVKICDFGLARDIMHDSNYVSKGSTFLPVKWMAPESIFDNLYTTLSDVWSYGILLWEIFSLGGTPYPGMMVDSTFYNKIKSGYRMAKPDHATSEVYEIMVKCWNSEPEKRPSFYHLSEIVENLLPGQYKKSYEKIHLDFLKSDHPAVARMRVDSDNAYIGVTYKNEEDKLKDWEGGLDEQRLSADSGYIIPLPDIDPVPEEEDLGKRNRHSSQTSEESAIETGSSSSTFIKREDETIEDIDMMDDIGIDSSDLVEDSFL
measurement.kind: Activity inhibition rate PDGFRα (h) (%)
Give bare numbers, in %.

Solved entries:
compound="O=C(Nc1ccc(Oc2ncnc3[nH]ncc23)c(F)c1)Nc1ccc(Cl)c(C(F)(F)F)c1 [4a-10]" reported_measurement=52
compound="C[C@@H](NC(=O)Nc1ccc(Oc2ncnc3[nH]ncc23)cc1)c1ccccc1 [4a-19]" reported_measurement=84
compound="CC(C)c1cccc(NC(=O)Nc2ccc(Oc3ncnc4[nH]ncc34)c(F)c2)c1 [4a-7]" reported_measurement=89

Continue with the next compound.
Return reported Activity inhibition rate PDGFRα (h). Input compound: O=C(Nc1ccc(Oc2ncnc3[nH]ncc23)cc1)Nc1cc(C(F)(F)F)cc(C(F)(F)F)c1 [4a-12] 52

----------
biological target: PDGFRβ (Homo sapiens, UniProt P09619)
Sequence (P09619 33-1106): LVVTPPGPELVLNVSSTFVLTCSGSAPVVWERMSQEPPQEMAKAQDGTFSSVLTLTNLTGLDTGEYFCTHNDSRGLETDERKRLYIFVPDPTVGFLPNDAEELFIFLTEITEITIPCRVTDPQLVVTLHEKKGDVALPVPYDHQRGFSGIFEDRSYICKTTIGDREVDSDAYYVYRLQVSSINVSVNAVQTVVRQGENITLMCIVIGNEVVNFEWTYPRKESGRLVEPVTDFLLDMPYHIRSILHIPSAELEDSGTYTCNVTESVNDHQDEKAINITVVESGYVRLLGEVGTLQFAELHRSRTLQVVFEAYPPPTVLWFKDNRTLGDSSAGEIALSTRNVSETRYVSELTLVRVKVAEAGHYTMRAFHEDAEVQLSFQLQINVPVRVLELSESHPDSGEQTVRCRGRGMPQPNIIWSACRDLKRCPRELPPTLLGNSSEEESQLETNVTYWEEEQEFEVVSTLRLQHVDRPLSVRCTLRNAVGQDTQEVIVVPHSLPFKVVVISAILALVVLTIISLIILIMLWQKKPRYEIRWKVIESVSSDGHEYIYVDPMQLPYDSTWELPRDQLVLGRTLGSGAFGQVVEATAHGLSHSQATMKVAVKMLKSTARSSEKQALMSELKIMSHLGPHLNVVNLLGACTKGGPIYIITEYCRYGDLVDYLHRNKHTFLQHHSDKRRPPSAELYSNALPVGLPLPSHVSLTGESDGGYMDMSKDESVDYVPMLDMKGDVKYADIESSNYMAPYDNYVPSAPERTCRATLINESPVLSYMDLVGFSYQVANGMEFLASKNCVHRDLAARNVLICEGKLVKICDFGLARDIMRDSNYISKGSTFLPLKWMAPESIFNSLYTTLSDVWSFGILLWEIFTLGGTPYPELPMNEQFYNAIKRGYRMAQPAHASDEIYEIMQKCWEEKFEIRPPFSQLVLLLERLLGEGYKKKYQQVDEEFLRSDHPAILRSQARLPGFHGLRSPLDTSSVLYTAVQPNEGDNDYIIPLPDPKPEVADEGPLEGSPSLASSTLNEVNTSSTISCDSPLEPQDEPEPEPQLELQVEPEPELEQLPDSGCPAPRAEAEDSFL
measurement.kind: IC50

given_smiles=CC(C)(C)c1cc(NC(=O)Nc2ccc(Oc3ncnc4[nH]ncc34)c(F)c2)no1 reported_measurement="< 10000 nM"

Switching to the query record.
Identify IC50 associated with the molecule "O=C(Nc1ccc(Oc2ncnc3[nH]ncc23)cc1)Nc1cccc(C(F)(F)F)c1" 184 nM

----------
target: FGFR2 (Homo sapiens, UniProt P21802); test: Kinase inhibition activity test, isotope labeling: FGFR2; assay type: biochemical; details: test compound at a concentration of 10 μM; read-out: Activity inhibition rate FGFR2 (h)
Sequence (P21802 22-821): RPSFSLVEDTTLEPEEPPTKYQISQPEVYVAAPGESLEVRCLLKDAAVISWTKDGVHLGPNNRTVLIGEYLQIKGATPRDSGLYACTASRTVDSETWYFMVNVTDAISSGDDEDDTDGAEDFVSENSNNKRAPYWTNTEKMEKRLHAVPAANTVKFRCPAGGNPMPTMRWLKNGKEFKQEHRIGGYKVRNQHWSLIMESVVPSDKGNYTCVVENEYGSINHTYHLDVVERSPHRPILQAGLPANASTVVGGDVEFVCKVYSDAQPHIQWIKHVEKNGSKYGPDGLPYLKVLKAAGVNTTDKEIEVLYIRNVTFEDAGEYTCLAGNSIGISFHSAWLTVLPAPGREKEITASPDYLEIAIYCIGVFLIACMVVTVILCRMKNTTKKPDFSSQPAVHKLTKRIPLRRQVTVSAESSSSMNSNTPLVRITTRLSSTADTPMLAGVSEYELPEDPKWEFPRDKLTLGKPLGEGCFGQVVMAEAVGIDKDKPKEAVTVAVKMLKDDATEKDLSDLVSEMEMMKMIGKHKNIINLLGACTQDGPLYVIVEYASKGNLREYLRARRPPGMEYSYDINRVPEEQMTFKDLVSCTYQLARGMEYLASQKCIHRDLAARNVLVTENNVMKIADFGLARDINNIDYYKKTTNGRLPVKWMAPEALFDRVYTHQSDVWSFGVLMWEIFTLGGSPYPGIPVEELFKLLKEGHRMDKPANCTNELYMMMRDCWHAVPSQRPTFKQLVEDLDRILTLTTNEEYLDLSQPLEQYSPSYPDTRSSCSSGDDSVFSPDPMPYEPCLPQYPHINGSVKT
measurement.kind: inhibition at 10 µM (%)
Numbers only, in %.

Some compounds with recorded inhibition at 10 µM:
compound="O=C(Nc1ccc(NC(=O)N2C=NC=C3NNC=C32)cc1)Nc1ccc(Cl)c(C(F)(F)F)c1 [4b-5]" measurement_kind="inhibition at 10 µM" reported_measurement=52
compound="Cc1cc(C)c(NC(=O)Nc2ccc(NC(=O)N3C=NC=C4NNC=C43)cc2)c(C)c1 [4b-7]" measurement_kind="inhibition at 10 µM" reported_measurement=69

# input for lookup
For the compound COc1cccc(NC(=O)Nc2ccc(Nc3ncnc4[nH]ncc34)cc2)c1 [4b-3] , report inhibition at 10 µM. 45

----------
target: PDGFRα (Homo sapiens)
measurement.kind: pIC50
Numbers only, as −log10 of the molar value.

In the examples that follow, each entry is paired with its recorded pIC50.
given_smiles=O=C(Nc1ccc(Oc2ncnc3[nH]ncc23)cc1)Nc1ccc(Cl)c(C(F)(F)F)c1 reported_measurement=6.65
given_smiles=CC(C)(C)c1cc(NC(=O)Nc2ccc(Oc3ncnc4[nH]ncc34)cc2)on1 reported_measurement=5.85

Please find the next compound below.
Consider the compound "O=C(Nc1ccc(Oc2ncnc3[nH]ncc23)cc1)Nc1cccc(C(F)(F)F)c1" and give its recorded pIC50. 6.49

----------
Target: FLT3 (Homo sapiens, UniProt P36888)
Sequence (P36888 27-993): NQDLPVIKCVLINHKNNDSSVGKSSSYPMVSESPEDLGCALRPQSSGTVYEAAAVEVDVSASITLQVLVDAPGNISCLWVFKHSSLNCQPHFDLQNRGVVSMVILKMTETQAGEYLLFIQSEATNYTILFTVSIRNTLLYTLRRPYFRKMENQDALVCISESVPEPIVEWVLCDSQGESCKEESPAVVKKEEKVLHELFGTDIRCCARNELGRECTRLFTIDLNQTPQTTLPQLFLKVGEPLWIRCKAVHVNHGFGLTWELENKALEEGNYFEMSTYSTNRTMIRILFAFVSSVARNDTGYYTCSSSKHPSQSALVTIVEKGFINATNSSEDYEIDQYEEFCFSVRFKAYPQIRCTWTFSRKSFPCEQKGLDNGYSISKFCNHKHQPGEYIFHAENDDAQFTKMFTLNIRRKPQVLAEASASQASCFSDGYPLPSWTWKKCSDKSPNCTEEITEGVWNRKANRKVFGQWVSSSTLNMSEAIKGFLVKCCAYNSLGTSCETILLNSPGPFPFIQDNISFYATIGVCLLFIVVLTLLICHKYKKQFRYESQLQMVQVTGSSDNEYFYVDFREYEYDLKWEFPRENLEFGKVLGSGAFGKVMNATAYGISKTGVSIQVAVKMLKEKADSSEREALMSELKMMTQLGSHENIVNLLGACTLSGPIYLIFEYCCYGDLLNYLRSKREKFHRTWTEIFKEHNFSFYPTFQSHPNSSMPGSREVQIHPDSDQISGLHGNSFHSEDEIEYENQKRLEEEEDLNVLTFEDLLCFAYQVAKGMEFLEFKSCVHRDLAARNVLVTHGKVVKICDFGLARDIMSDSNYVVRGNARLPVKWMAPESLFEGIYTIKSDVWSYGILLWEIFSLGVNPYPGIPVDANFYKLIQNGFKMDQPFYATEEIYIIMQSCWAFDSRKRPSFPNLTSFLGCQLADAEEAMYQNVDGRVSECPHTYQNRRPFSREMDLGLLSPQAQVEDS
Provide the recorded IC50 for the entries that follow.
Be sure to follow the number with its unit.

compound="O=C(Nc1ccc(Oc2ncnc3[nH]ncc23)cc1)Nc1ccc(Cl)c(C(F)(F)F)c1 [4a-2]" reported_measurement="39 nM"
compound="O=C(Nc1ccc(Oc2ncnc3[nH]ncc23)cc1)Nc1cc(C(F)(F)F)cc(C(F)(F)F)c1 [4a-12]" reported_measurement="61 nM"
compound="O=C(Nc1ccc(Oc2ncnc3[nH]ncc23)cc1)Nc1cccc(C(F)(F)F)c1 [4a-6]" reported_measurement="9 nM"

Working through the 4 compounds below one at a time, give IC50 for each.
1. O=C(Nc1ccc(Oc2ncnc3[nH]ncc23)cc1)Nc1ccc(C(F)(F)F)cc1Cl [4a-13]
2. O=C(Nc1ccccc1)Nc1ccc(Oc2ncnc3[nH]ncc23)cc1 [4a-15]
3. CC(C)(C)c1cc(NC(=O)Nc2ccc(Oc3ncnc4[nH]ncc34)c(F)c2)no1 [4a-31]
4. O=C(Nc1ccc(C(F)(F)F)cc1)Nc1ccc(Oc2ncnc3[nH]ncc23)c(F)c1 [4a-9]

["24 nM", "89 nM", "5 nM", "18 nM"]
